system: GORASP1, Q9BQQ3
Sequence (Q9BQQ3 1-208): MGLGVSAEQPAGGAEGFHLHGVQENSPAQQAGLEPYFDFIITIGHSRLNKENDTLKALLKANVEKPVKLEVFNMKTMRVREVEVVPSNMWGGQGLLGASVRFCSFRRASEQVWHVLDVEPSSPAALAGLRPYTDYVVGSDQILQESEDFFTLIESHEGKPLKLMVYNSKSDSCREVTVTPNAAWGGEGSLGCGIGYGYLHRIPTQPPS
assayProtocol: holdup assay
Set-up: key: below the threshold = too weak to quantify, mostly under pKd 3.1 to 4
runParameters: plain residues with an end cap or a label only (N-terminal biotin on a linker: ttds)
quantityMeasured: pKd
No unit in the answer, please; the number alone is enough.

Reported pKd for RSLEEEESQL [GRASP, Q7Z6J2] : what is it? 3.72

Request: SSRTRRETQL [HPV16-E6, P03126] 3.52

Continue with SVWLRKETRV [CYSLTR2, Q9NS75] 3.7

Follow-up item: GQDSREETQL [KCNT2, Q6UVM3] 3.75
